Reference source: patent US11512069B2

Here the recorded pIC50 is given for each entry.
- target: TLR7 (Homo sapiens, UniProt Q9NYK1)
- assay-text: HEK Cell Assay (TLR7/NFKb HEK reporter cells, Steady-Glo)
- protocol-conditions: compound 30 min, then R*48 agonist 5 hours, Steady-Glo readout, read-out: Potency
pIC50: −log10 of the molar value.

Request - read-out pIC50 | tested on TLR7 (Homo sapiens, UniProt Q9NYK1) | compound C[C@@H]1C[C@H](c2ccc(C#N)c3ncccc23)CN(C(=O)C[C@@H]2CCN(C)CC2(F)F)C1
> 6.00

Request - read-out pIC50 | tested on TLR7 (Homo sapiens, UniProt Q9NYK1) | compound CC1CC(c2ccc(C(F)(F)F)c3ncccc23)CN(C(=O)CCN2CCN(C)CC2)C1 (stereo not drawn) [Compound 11]
4.70 to 6.00

Request - read-out pIC50 | tested on TLR7 (Homo sapiens, UniProt Q9NYK1) | compound C[C@@H]1C[C@H](c2ccc(C#N)c3ncccc23)CN(CC(=O)NCC2CCN(C)CC2)C1 (relative stereo)
4.70 to 6.00

Request - read-out pIC50 | tested on TLR7 (Homo sapiens, UniProt Q9NYK1) | compound C[C@@H]1C[C@@H](c2ccc(C#N)c3ncccc23)CN(CC(=O)NC2CCN(C)CC2)C1 (relative stereo)
4.70 to 6.00

* * *

- target: TLR7 (Homo sapiens)
- assay-text: HEK Cell Assay (TLR7/NFKb HEK reporter cells, Steady-Glo)
- protocol-conditions: compound 30 min, then R*48 agonist 5 hours, Steady-Glo readout, read-out: Potency
pIC50: −log10 of the molar value.
Here the recorded pIC50 is given for each entry.

Returns the measured pIC50 for the input compound. Input: CC1C[C@@H](c2ccc(C#N)c3ncccc23)CN(C(=O)Cc2cccnc2)C1 (stereo partly shown) [Compound 21]
< 4.70

Returns the measured pIC50 for the input compound. Input: C[C@@H]1CC(c2ccc(C(F)(F)F)c3ncccc23)CN(C(=O)CCn2cccn2)C1 (stereo partly shown) [Compound 12]
< 4.70

Returns the measured pIC50 for the input compound. Input: C[C@@H]1C[C@@H](c2ccc(C#N)c3ncccc23)CN(C(=O)CN2CCN(C)CC2)C1 [Compound 96]
4.70 to 6.00

Returns the measured pIC50 for the input compound. Input: CC1CC(c2ccc(C(F)(F)F)c3ncccc23)CN(C(=O)CCN2CCN(C)CC2)C1 (stereo in doubt) [Compound 45]
4.70 to 6.00

Returns the measured pIC50 for the input compound. Input: C[C@@H]1C[C@H](c2ccc(C#N)c3ncccc23)CN(C(=O)Cc2cnn(C)c2)C1 (relative stereo) [Compound 107]
< 4.70

Returns the measured pIC50 for the input compound. Input: C[C@@H]1C[C@@H](c2ccc(C#N)c3ncccc23)CN(CC(=O)N2CCC(N(C)C)CC2)C1 (relative stereo) [Compound 71]
4.70 to 6.00

Returns the measured pIC50 for the input compound. Input: C[C@@H]1C[C@H](c2ccc(C#N)c3ncccc23)CN(C(=O)Cc2cccnc2)C1 (relative stereo) [Compound 20]
< 4.70

* * *

- target: TLR7 (Homo sapiens, UniProt Q9NYK1)
- assay-text: HEK Cell Assay (TLR7/NFKb HEK reporter cells, Steady-Glo)
- protocol-conditions: compound 30 min, then R*48 agonist 5 hours, Steady-Glo readout, read-out: Potency
Here the recorded IC50 is given for each entry.

See these solved cases before continuing.
COCCN[C@@H]1C[C@H](C)C[C@H](c2ccc(C#N)c3nccnc23)C1 (relative stereo) [Compound 133] = < 1 µM
Cc1ccc([C@H]2C[C@@H](C)CN(C(=O)CC3CCN(C)CC3)C2)c2cccnc12 [Compound 81] = < 1 µM
C[C@@H]1C[C@@H](c2ccc(C#N)c3ncccc23)CN(CC(=O)NCC2CCN(C)CC2)C1 (relative stereo) [Compound 75] = 1 to 20 µM

Request - read-out IC50 | tested on TLR7 (Homo sapiens, UniProt Q9NYK1) | molecule CC(C)N1CCC(CC(=O)N2C[C@H](C)C[C@H](c3ccc(C#N)c4ncccc34)C2)CC1 (racemic) [Compound 19]
< 1 µM

* * *

Here the recorded IC50 is given for each entry.
- target: TLR7 (Homo sapiens, UniProt Q9NYK1)
- assay-text: HEK Cell Assay (TLR7/NFKb HEK reporter cells, Steady-Glo)
- protocol-conditions: compound 30 min, then R*48 agonist 5 hours, Steady-Glo readout, read-out: Potency

C[C@@H]1C[C@H](c2ccc(C#N)c3ncccc23)CN(C(=O)CC2(N)CC2)C1 (relative stereo) = 1 to 20 µM
C[C@H]1C[C@@H](NC(=O)[C@@H](N)C(F)(F)F)C[C@H](c2ccc(C#N)c3nccnc23)C1 (racemic) = 1 to 20 µM

Request - read-out IC50 | tested on TLR7 (Homo sapiens, UniProt Q9NYK1) | molecule COCCN[C@H]1C[C@@H](C)C[C@H](c2ccc(C(F)(F)F)c3nccnc23)C1
> 20 µM

* * *

- target: TLR7 (Homo sapiens, UniProt Q9NYK1)
- Sequence (Q9NYK1 27-1049): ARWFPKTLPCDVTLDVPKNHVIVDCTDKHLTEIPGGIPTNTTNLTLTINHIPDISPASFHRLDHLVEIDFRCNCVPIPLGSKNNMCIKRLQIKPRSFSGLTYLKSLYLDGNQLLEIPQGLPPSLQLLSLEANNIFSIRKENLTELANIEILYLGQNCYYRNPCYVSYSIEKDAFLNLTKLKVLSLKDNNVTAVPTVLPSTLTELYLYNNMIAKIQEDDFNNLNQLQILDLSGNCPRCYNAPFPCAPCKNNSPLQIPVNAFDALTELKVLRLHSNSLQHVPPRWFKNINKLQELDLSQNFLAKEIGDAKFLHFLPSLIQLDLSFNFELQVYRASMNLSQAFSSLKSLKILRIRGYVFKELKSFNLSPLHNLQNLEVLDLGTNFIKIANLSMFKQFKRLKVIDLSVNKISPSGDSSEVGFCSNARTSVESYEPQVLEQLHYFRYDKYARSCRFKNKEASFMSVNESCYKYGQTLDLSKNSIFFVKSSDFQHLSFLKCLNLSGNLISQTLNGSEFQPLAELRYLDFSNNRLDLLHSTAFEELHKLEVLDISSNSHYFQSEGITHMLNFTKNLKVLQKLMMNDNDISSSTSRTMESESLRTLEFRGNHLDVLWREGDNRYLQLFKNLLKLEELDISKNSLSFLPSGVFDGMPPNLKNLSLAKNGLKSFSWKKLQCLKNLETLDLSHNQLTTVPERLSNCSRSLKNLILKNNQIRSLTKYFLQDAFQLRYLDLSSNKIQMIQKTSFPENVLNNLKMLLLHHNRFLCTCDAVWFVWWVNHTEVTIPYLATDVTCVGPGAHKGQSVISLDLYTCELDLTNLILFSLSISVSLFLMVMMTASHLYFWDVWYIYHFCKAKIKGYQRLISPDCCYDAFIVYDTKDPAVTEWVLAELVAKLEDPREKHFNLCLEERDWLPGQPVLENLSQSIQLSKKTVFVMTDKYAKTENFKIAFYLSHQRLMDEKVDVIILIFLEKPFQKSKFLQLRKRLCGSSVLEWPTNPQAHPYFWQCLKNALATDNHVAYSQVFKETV
- assay-text: HEK Cell Assay (TLR7/NFKb HEK reporter cells, Steady-Glo)
- protocol-conditions: compound 30 min, then R*48 agonist 5 hours, Steady-Glo readout, read-out: Potency
endpoint-name: IC50

C[C@@H]1C[C@@H](c2ccc(C#N)c3ncccc23)CN(C(=O)C2CC(N)C2)C1 (stereo partly drawn) = 1000 to 20000 nM
Cc1ccc([C@H]2C[C@@H](C)CN(C(=O)CC3C4CC3CN(C)C4)C2)c2cccnc12 (stereo partly drawn) = < 1000 nM

Returns the measured IC50 for the input compound. Input: C[C@@H]1C[C@H](c2ccc(C(F)(F)F)c3ncccc23)CN(C(=O)NC2CC2)C1 (relative stereo)
1000 to 20000 nM

* * *

- target: TLR7 (Homo sapiens, UniProt Q9NYK1)
- assay-text: HEK Cell Assay (TLR7/NFKb HEK reporter cells, Steady-Glo)
- protocol-conditions: compound 30 min, then R*48 agonist 5 hours, Steady-Glo readout, read-out: Potency
pIC50: −log10 of the molar value.
endpoint-name: pIC50

See these solved cases before continuing.
C[C@@H]1C[C@H](c2ccc(OC(F)(F)F)c3ncccc23)CN(C(=O)CN2CCN(C)CC2)C1 = 4.70 to 6.00
C[C@@H]1C[C@H](c2ccc(C(F)(F)F)c3ncccc23)CN(C(=O)Cn2cccn2)C1 (relative stereo) = < 4.70

As a next step, examine the compound that follows.
Request - read-out pIC50 | tested on TLR7 (Homo sapiens, UniProt Q9NYK1) | compound C[C@@H]1C[C@H](c2ccc(C#N)c3ncccc23)CN(C(=O)C[C@H]2CCN(C)CC2(F)F)C1
4.70 to 6.00

* * *

Here the recorded IC50 is given for each entry.
- target: TLR7 (Homo sapiens, UniProt Q9NYK1)
- Sequence (Q9NYK1 27-1049): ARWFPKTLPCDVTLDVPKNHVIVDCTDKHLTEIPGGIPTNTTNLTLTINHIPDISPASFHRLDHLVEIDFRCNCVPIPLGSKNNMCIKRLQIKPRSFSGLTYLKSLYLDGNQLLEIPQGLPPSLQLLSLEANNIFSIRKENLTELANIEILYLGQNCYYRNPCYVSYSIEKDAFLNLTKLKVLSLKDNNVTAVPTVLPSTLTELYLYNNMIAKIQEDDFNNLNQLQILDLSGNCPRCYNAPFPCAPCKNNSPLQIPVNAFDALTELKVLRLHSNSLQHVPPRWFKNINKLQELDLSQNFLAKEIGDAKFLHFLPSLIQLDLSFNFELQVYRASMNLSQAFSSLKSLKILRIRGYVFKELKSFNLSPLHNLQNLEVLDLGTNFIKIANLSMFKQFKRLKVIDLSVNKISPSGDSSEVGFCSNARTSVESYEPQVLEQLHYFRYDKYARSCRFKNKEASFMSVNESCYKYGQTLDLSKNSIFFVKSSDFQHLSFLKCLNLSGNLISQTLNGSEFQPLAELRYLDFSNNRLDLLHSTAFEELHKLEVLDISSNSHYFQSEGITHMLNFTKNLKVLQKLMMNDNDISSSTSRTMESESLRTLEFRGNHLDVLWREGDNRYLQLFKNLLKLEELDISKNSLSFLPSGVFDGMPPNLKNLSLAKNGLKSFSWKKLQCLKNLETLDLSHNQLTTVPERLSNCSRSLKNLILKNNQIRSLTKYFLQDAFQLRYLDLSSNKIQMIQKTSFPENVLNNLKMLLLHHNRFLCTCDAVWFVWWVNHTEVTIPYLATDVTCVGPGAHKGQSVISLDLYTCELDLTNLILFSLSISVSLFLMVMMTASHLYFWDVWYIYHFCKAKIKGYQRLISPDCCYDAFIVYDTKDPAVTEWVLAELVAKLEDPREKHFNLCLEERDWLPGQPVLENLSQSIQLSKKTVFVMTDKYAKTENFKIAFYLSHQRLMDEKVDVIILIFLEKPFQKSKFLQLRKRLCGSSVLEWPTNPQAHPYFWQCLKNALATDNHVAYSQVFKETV
- assay-text: HEK Cell Assay (TLR7/NFKb HEK reporter cells, Steady-Glo)
- protocol-conditions: compound 30 min, then R*48 agonist 5 hours, Steady-Glo readout, read-out: Potency

See these solved cases before continuing.
CC1CC(c2ccc(C#N)c3ncccc23)CN(CC2CCN(C)C2)C1 (centres unmarked) [Compound 51] = < 1 µM
C[C@H]1C[C@H](c2ccc(C#N)c3ncccc23)CN(CC(N)=O)C1 (relative stereo) [Compound 66] = > 20 µM
CC1CC(c2ccc(C#N)c3ncccc23)CN(C(=O)CC2CCN(C)CC2)C1 (stereo in doubt) [Compound 55] = < 1 µM
C[C@H]1C[C@H](c2ccc(C#N)c3ncccc23)CN(C(=O)CC2(N)CC2)C1 (relative stereo) [Compound 63] = 1 to 20 µM

Returns the measured IC50 for the input compound. Input: COc1ccc([C@@H]2C[C@@H](C)CN(C(=O)CC3CCN(C)CC3)C2)c2cccnc12 [Compound 86]
< 1 µM

Returns the measured IC50 for the input compound. Input: C[C@H]1C[C@@H](NC(=O)CN(C)C)C[C@@H](c2ccc(C#N)c3nccnc23)C1 (racemic) [Compound 131]
< 1 µM

Returns the measured IC50 for the input compound. Input: C[C@@H]1C[C@H](c2ccc(C#N)c3ncccc23)CN(C(=O)CC2CC2)C1 (relative stereo) [Compound 28]
1 to 20 µM

Returns the measured IC50 for the input compound. Input: CC1C[C@H](c2ccc(C#N)c3ncccc23)CN(C(=O)CC(F)(F)F)C1 (some centres unmarked) [Compound 27]
> 20 µM

Returns the measured IC50 for the input compound. Input: C[C@@H]1C[C@@H](c2ccc(C(F)(F)F)c3ncccc23)CN(C(=O)CCn2cccn2)C1 (relative stereo) [Compound 13]
> 20 µM

Returns the measured IC50 for the input compound. Input: COC(=O)CCN1CC(C)CC(c2ccc(C#N)c3ncccc23)C1 (centres unmarked) [Compound 48]
> 20 µM

Returns the measured IC50 for the input compound. Input: C[C@H]1C[C@@H](NC(=O)[C@H](N)C(F)(F)F)C[C@@H](c2ccc(C#N)c3nccnc23)C1 (racemic) [Compound 144]
1 to 20 µM
